test system: corn earworm (Helicoverpa zea); assay: Insecticidal test on treated lepidopteran diet, corn earworm; type: in vivo; settings: 120 h; second-instar larvae on treated diet, 8 wells; dose of 50 mg/cm^2 [sic] (2000 ppm, 50 μL); dead insects counted 5 days after treatment; read-out: AVG HELIZE 50 (percent control, corn ear worm)
Recorded pest or weed control at 2000 µg/mL values for a group of compounds are listed next.

smiles | system.tested | measurement.units | pest or weed control at 2000 µg/mL
COc1cccc(/C=N/Nc2nc(NCc3ccc(Cl)nc3)nc(Nc3ccc(F)c(C(F)(F)F)c3)n2)c1 | corn earworm (Helicoverpa zea) | % | 100
FC(F)(F)Oc1ccc(/C=N/Nc2nc(NCCN3CCOCC3)nc(Nc3ccc(OC(F)(F)F)cc3)n2)cc1 | corn earworm (Helicoverpa zea) | % | 100
C/C(=N\Nc1nc(Nc2ccc(OC(F)(F)F)cc2)nc(N2CCOCC2)n1)c1cccc(C#N)c1 | corn earworm (Helicoverpa zea) | % | 100
Fc1ccc(Nc2nc(Cl)nc(N/N=C/c3ccc(OC(F)(F)F)cc3)n2)cc1C(F)(F)F | corn earworm (Helicoverpa zea) | % | 100
CCOC(=O)CN(C)c1nc(N/N=C/c2ccc(OC(F)(F)F)cc2)nc(Nc2ccc(OC(F)(F)F)cc2)n1 | corn earworm (Helicoverpa zea) | % | 0
O=C1CN(c2nc(N/N=C/c3ccc(OC(F)(F)F)cc3)nc(Nc3ccc(OC(F)(F)F)cc3)n2)CCN1 | corn earworm (Helicoverpa zea) | % | 100
FC(F)(F)Oc1ccc(/C=N/Nc2nc(NCCN3CCOCC3)nc(Nc3cccc(C(F)(F)F)c3)n2)cc1 | corn earworm (Helicoverpa zea) | % | 100
Fc1ccc(Nc2ncnc(N/N=C/c3ccc(OC(F)(F)F)cc3)n2)cc1C(F)(F)F | corn earworm (Helicoverpa zea) | % | 100
Fc1ccc(Nc2nc(N/N=C/c3ccc(OC(F)(F)F)cc3)nc(N3CCOCC3)n2)cc1C(F)(F)F | corn earworm (Helicoverpa zea) | % | 100

----------
system: corn earworm (Helicoverpa zea); assay: Insecticidal test on treated lepidopteran diet, corn earworm; assay type: in vivo; conditions: 120 h; second-instar larvae on treated diet, 8 wells; dose of 50 mg/cm^2 [sic] (2000 ppm, 50 μL); dead insects counted 5 days after treatment; read-out: AVG HELIZE 50 (percent control, corn ear worm)
Recorded pest or weed control at 2000 µg/mL values for a group of compounds are listed next.
endpoint.name: pest or weed control at 2000 µg/mL (%)

compound | observed
FC(F)(F)Oc1ccc(Nc2nc(N/N=C/c3ccccc3OC(F)(F)F)nc(N3CCOCC3)n2)cc1 | 13
Fc1cc(/C=N/Nc2nc(Nc3ccc(OC(F)(F)F)cc3)nc(OCC(F)(F)F)n2)ccc1Cl | 100
Fc1ccc(Nc2nc(NCc3ccc(Cl)nc3)nc(N/N=C/c3ccccc3Cl)n2)cc1C(F)(F)F | 25
COCC(C)Nc1nc(N/N=C/c2ccc(OC(F)(F)F)cc2)nc(Nc2ccc(OC(F)(F)F)cc2)n1 (stereo not shown) | 100
Fc1ccc(Nc2nc(NCCc3cccnc3)nc(N/N=C/c3ccc(OC(F)(F)F)cc3)n2)cc1C(F)(F)F | 100
Fc1ccc(Nc2nc(NCc3ccc(Cl)nc3)nc(N/N=C/c3cccc(Cl)c3)n2)cc1C(F)(F)F | 100
FC(F)(F)Oc1ccc(Nc2nc(N/N=C/c3ccc(Cl)c(Cl)c3)nc(N3CCOCC3)n2)cc1 | 100
